# assay-overview: MRTinf in male Sprague-Dawley rat brain at 1 mg/kg, iv measured upto 8 hrs by LC-MS/MS analysis
# Assay type: ADME, organism-based

| compound-string | value-unit | MRT inf |
| --- | --- | --- |
| COc1cc([Se]C(F)(F)F)c(OC)cc1CCN.Cl | h | 1.98 |

###

# tested-target: 5-hydroxytryptamine receptor 2B (Homo sapiens, UniProt P41595)
# Sequence (P41595 whole entry): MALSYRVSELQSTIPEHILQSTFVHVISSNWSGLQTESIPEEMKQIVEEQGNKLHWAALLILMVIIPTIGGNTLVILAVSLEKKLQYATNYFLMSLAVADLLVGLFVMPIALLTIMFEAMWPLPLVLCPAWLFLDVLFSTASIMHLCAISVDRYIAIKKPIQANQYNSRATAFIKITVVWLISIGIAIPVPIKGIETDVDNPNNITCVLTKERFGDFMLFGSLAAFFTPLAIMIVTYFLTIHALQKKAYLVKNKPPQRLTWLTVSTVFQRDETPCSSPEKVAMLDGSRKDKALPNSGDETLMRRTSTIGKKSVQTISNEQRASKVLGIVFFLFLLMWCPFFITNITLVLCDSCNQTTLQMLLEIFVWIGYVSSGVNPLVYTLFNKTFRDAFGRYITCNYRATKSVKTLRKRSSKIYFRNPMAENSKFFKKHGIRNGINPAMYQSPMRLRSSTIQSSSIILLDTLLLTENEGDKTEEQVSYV
# assay-overview: Displacement of [3H]LSD from human 5-HT2B receptor expressed in HEK293 cell membrane incubated for 90 mins by microbeta liquid scintillation counting method
# Type: cell membranes
reported-property: Ki (nM)

| molecule | tested-target | value-unit | obs-value |
| --- | --- | --- | --- |
| COc1cc([Se]C(F)(F)F)c(OC)cc1CCN.Cl | 5-hydroxytryptamine receptor 2B (Homo sapiens, UniProt P41595) | nM | 14 |
| COc1cc(SCCC(F)(F)F)c(OC)cc1CCN.Cl | 5-hydroxytryptamine receptor 2B (Homo sapiens, UniProt P41595) | nM | 5.5 |
| COc1cc(SSC(F)(F)F)c(OC)cc1CCN.Cl | 5-hydroxytryptamine receptor 2B (Homo sapiens, UniProt P41595) | nM | 66 |
| COc1cc(S(=O)(=O)CF)c(OC)cc1CCN.Cl | 5-hydroxytryptamine receptor 2B (Homo sapiens, UniProt P41595) | nM | 28 |
| COc1cc(S(=O)(=O)C(F)(F)F)c(OC)cc1CCN.Cl | 5-hydroxytryptamine receptor 2B (Homo sapiens, UniProt P41595) | nM | 8.4 |
| COc1cc(SCCC(F)F)c(OC)cc1CCN.Cl | 5-hydroxytryptamine receptor 2B (Homo sapiens, UniProt P41595) | nM | 6.8 |
| COc1cc(SCC(F)(F)C(F)F)c(OC)cc1CCN.Cl | 5-hydroxytryptamine receptor 2B (Homo sapiens, UniProt P41595) | nM | 4.5 |
| COc1cc(S(=O)(=O)C(F)F)c(OC)cc1CCN.Cl | 5-hydroxytryptamine receptor 2B (Homo sapiens, UniProt P41595) | nM | 20 |
| COc1cc([S+]([O-])C(F)F)c(OC)cc1CCN.Cl (stereo not drawn) | 5-hydroxytryptamine receptor 2B (Homo sapiens, UniProt P41595) | nM | 26 |
| COc1cc(SC(F)F)c(OC)cc1CCN.Cl | 5-hydroxytryptamine receptor 2B (Homo sapiens, UniProt P41595) | nM | 24 |
| COc1cc(SSC(C)(C)C)c(OC)cc1CCN.Cl | 5-hydroxytryptamine receptor 2B (Homo sapiens, UniProt P41595) | nM | 10 |
| COc1cc([S+]([O-])C(F)(F)F)c(OC)cc1CCN.Cl (stereo not drawn) | 5-hydroxytryptamine receptor 2B (Homo sapiens, UniProt P41595) | nM | 6.5 |
| COc1cc(SCCCF)c(OC)cc1CCN | 5-hydroxytryptamine receptor 2B (Homo sapiens, UniProt P41595) | nM | 6.2 |
